System: Nucleic Acid
ASSAY_PROCEDURE: Binding affinity to 5'-GTGCATACGTGGGC-3' sequence of DNA assessed as change in melting temperature by spectrophotometry
Type: nucleic-acid assay
So basically: is ΔTm under 10 °C? Then 1.0. Not under? Then 0.0.

CHEM_SMILES	GROUP_LABEL
Cn1cc(NC(=O)c2cc(NC(=O)c3nc(NC(=O)c4cc(NC(=O)[C@H](N)CCNC(=O)c5nc(NC(=O)c6cc(NC(=O)c7cc(NC(=O)c8sccc8Cl)cn7C)cn6C)cn5C)cn4C)cn3C)cn2C)cc1C(=O)NCCCO/N=C\c1ccc(F)cc1	0.0
CN(CCCNC(=O)c1cccc(C(=O)O)c1)CCCNC(=O)c1cc(NC(=O)c2cc(NC(=O)c3nc(NC(=O)c4cc(NC(=O)[C@H](N)CCNC(=O)c5nc(NC(=O)c6cc(NC(=O)c7cc(NC(=O)c8sccc8Cl)cn7C)cn6C)cn5C)cn4C)cn3C)cn2C)cn1C	0.0
Cn1cc(NC(=O)c2cc(NC(=O)c3nc(NC(=O)c4cc(NC(=O)[C@H](N)CCNC(=O)c5nc(NC(=O)c6cc(NC(=O)c7cc(NC(=O)c8sccc8Cl)cn7C)cn6C)cn5C)cn4C)cn3C)cn2C)cc1C(=O)NCCCNC(=O)c1cccc(C(=O)O)c1	1.0
Cn1cc(NC(=O)c2cc(NC(=O)c3nc(NC(=O)c4cc(NC(=O)[C@H](N)CCNC(=O)c5nc(NC(=O)c6cc(NC(=O)c7cc(NC(=O)c8sccc8Cl)cn7C)cn6C)cn5C)cn4C)cn3C)cn2C)cc1C(=O)NCCCCCCCNC(=O)c1cccc(C(=O)O)c1	1.0
Cn1cc(NC(=O)c2cc(NC(=O)c3nc(NC(=O)c4cc(NC(=O)[C@H](N)CCNC(=O)c5nc(NC(=O)c6cc(NC(=O)c7cc(NC(=O)c8sccc8Cl)cn7C)cn6C)cn5C)cn4C)cn3C)cn2C)cc1C(=O)NCCCON	0.0
Cn1cc(NC(=O)c2cc(NC(=O)c3nc(NC(=O)c4cc(NC(=O)[C@H](N)CCNC(=O)c5nc(NC(=O)c6cc(NC(=O)c7cc(NC(=O)c8sccc8Cl)cn7C)cn6C)cn5C)cn4C)cn3C)cn2C)cc1C(=O)NCCCCCCCN	0.0
CN(C)CCCNC(=O)CCNC(=O)c1cc(NC(=O)c2cc(NC(=O)c3cc(NC(=O)c4nc(NC(=O)[C@H](N)CCNC(=O)c5nc(NC(=O)c6cc(NC(=O)c7nc(NC(=O)c8nccn8C)cn7C)cn6C)cn5C)cn4C)cn3C)cn2C)cn1C	1.0
Cn1cc(NC(=O)c2cc(NC(=O)c3nc(NC(=O)c4cc(NC(=O)[C@H](N)CCNC(=O)c5nc(NC(=O)c6cc(NC(=O)c7cc(NC(=O)c8sccc8Cl)cn7C)cn6C)cn5C)cn4C)cn3C)cn2C)cc1C(=O)NCCCO/N=C\c1cccc(F)c1	1.0
CN(CCCN)CCCNC(=O)c1cc(NC(=O)c2cc(NC(=O)c3nc(NC(=O)c4cc(NC(=O)[C@H](N)CCNC(=O)c5nc(NC(=O)c6cc(NC(=O)c7cc(NC(=O)c8sccc8Cl)cn7C)cn6C)cn5C)cn4C)cn3C)cn2C)cn1C	0.0
Cn1cc(NC(=O)c2cc(NC(=O)c3nc(NC(=O)c4cc(NC(=O)[C@H](N)CCNC(=O)c5nc(NC(=O)c6cc(NC(=O)c7cc(NC(=O)c8sccc8Cl)cn7C)cn6C)cn5C)cn4C)cn3C)cn2C)cc1C(=O)NCCCN	0.0
Cn1cc(NC(=O)c2cc(NC(=O)c3nc(NC(=O)c4cc(NC(=O)[C@H](N)CCNC(=O)c5nc(NC(=O)c6cc(NC(=O)c7cc(NC(=O)c8sccc8Cl)cn7C)cn6C)cn5C)cn4C)cn3C)cn2C)cc1C(=O)NCCCO/N=C\c1cccc(C(=O)O)c1	0.0
CN(C)CCCNC(=O)CCNC(=O)c1cc(NC(=O)c2cc(NC(=O)c3nc(NC(=O)c4cc(NC(=O)[C@H](N)CCNC(=O)c5nc(NC(=O)c6cc(NC(=O)c7cc(NC(=O)c8sccc8Cl)cn7C)cn6C)cn5C)cn4C)cn3C)cn2C)cn1C	0.0

###

Test system: Nucleic Acid
ASSAY_PROCEDURE: Binding affinity to 14mer DNA assessed as change in melting temperature by spectrophotometry
Assay type: nucleic-acid assay
Each entry below lists one item and its recorded ΔTm value.

CHEM_SMILES	TESTED_TARGET	ΔTm
CN(C)CCCNC(=O)CCNC(=O)c1cc(NC(=O)c2cc(NC(=O)c3nc(NC(=O)c4cc(NC(=O)[C@H](N)CCNC(=O)c5nc(NC(=O)c6cc(NC(=O)c7cc(NC(=O)c8nccn8C)cn7C)cn6C)cn5C)cn4C)cn3C)cn2C)cn1C	Nucleic Acid	3.6 °C
Cn1cc(NC(=O)c2cc(NC(=O)c3nc(NC(=O)c4cc(NC(=O)[C@H](N)CCNC(=O)c5nc(NC(=O)c6cc(NC(=O)c7cc(NC(=O)c8nccn8C)cn7C)cn6C)cn5C)cn4C)cn3C)cn2C)cc1C(=O)NCCCNC(=O)c1cccc(C(=O)O)c1	Nucleic Acid	1.5 °C
Cn1cc(NC(=O)c2cc(NC(=O)c3nc(NC(=O)c4cc(NC(=O)[C@H](N)CCNC(=O)c5nc(NC(=O)c6cc(NC(=O)c7cc(NC(=O)c8nccn8C)cn7C)cn6C)cn5C)cn4C)cn3C)cn2C)cc1C(=O)NCCCO/N=C\c1cccc(C(=O)O)c1	Nucleic Acid	2.6 °C
Cn1cc(NC(=O)c2cc(NC(=O)c3nc(NC(=O)c4cc(NC(=O)[C@H](N)CCNC(=O)c5nc(NC(=O)c6cc(NC(=O)c7cc(NC(=O)c8nccn8C)cn7C)cn6C)cn5C)cn4C)cn3C)cn2C)cc1C(=O)NCCCCCCCNC(=O)c1cccc(C(=O)O)c1	Nucleic Acid	2.6 °C

###

System: Nucleic Acid
ASSAY_PROCEDURE: Binding affinity to 5'-TTGCAGAACAGCAA-3' sequence of DNA assessed as change in melting temperature by spectrophotometry
Format: nucleic-acid assay
MEASUREMENT_TYPE: ΔTm (°C)

CHEM_SMILES	TESTED_TARGET	MEASUREMENT_TYPE	UNIT_ABBREV	ASSAY_VALUE
Cn1cc(NC(=O)c2cc(NC(=O)c3cc(NC(=O)c4nc(NC(=O)[C@H](N)CCNC(=O)c5cc(NC(=O)c6cc(NC(=O)c7cc(NC(=O)c8nccn8C)cn7C)cn6C)cn5C)cn4C)cn3C)cn2C)cc1C(=O)NCCCO/N=C\c1cccc(F)c1	Nucleic Acid	ΔTm	°C	12.5
CN(C)CCCNC(=O)CCNC(=O)c1cc(NC(=O)c2cc(NC(=O)c3cc(NC(=O)c4nc(NC(=O)[C@H](N)CCNC(=O)c5cc(NC(=O)c6cc(NC(=O)c7cc(NC(=O)c8nccn8C)cn7C)cn6C)cn5C)cn4C)cn3C)cn2C)cn1C	Nucleic Acid	ΔTm	°C	14.3
CN(CCCNC(=O)c1cccc(C(=O)O)c1)CCCNC(=O)c1cc(NC(=O)c2cc(NC(=O)c3cc(NC(=O)c4nc(NC(=O)[C@H](N)CCNC(=O)c5cc(NC(=O)c6cc(NC(=O)c7cc(NC(=O)c8nccn8C)cn7C)cn6C)cn5C)cn4C)cn3C)cn2C)cn1C	Nucleic Acid	ΔTm	°C	14.2
Cn1cc(NC(=O)c2cc(NC(=O)c3cc(NC(=O)c4nc(NC(=O)[C@H](N)CCNC(=O)c5cc(NC(=O)c6cc(NC(=O)c7cc(NC(=O)c8nccn8C)cn7C)cn6C)cn5C)cn4C)cn3C)cn2C)cc1C(=O)NCCCN	Nucleic Acid	ΔTm	°C	16.2
Cn1cc(NC(=O)c2cc(NC(=O)c3cc(NC(=O)c4nc(NC(=O)[C@H](N)CCNC(=O)c5cc(NC(=O)c6cc(NC(=O)c7cc(NC(=O)c8nccn8C)cn7C)cn6C)cn5C)cn4C)cn3C)cn2C)cc1C(=O)NCCCCCCCNC(=O)c1cccc(C(=O)O)c1	Nucleic Acid	ΔTm	°C	10.4
Cn1cc(NC(=O)c2cc(NC(=O)c3cc(NC(=O)c4nc(NC(=O)[C@H](N)CCNC(=O)c5cc(NC(=O)c6cc(NC(=O)c7cc(NC(=O)c8nccn8C)cn7C)cn6C)cn5C)cn4C)cn3C)cn2C)cc1C(=O)NCCCNC(=O)c1cccc(C(=O)O)c1	Nucleic Acid	ΔTm	°C	11.1
Cn1cc(NC(=O)c2cc(NC(=O)c3cc(NC(=O)c4nc(NC(=O)[C@H](N)CCNC(=O)c5cc(NC(=O)c6cc(NC(=O)c7cc(NC(=O)c8nccn8C)cn7C)cn6C)cn5C)cn4C)cn3C)cn2C)cc1C(=O)NCCCO/N=C\c1cccc(C(=O)O)c1	Nucleic Acid	ΔTm	°C	11.5
CN(CCCN)CCCNC(=O)c1cc(NC(=O)c2cc(NC(=O)c3cc(NC(=O)c4nc(NC(=O)[C@H](N)CCNC(=O)c5cc(NC(=O)c6cc(NC(=O)c7cc(NC(=O)c8nccn8C)cn7C)cn6C)cn5C)cn4C)cn3C)cn2C)cn1C	Nucleic Acid	ΔTm	°C	17.3
